Each recorded value in this set is attributed to paper PMC8704707.

assay: in vitro; settings: human
RECORDED_METRIC: IC50

Exercise: // IC50 lookup, key: `[H]/N=C(\N)NN=Cc1ccc([N+](=O)[O-])o1`
Key: < 11 µM

---

biological target: BuChE from equine serum (EqBuChE) (Equus caballus); assay: biochemical; details: mean ± SD, n = three independent experiments; BTCh 40 µM; read-out: IC50 BuChE
Sequence (P81908 whole entry): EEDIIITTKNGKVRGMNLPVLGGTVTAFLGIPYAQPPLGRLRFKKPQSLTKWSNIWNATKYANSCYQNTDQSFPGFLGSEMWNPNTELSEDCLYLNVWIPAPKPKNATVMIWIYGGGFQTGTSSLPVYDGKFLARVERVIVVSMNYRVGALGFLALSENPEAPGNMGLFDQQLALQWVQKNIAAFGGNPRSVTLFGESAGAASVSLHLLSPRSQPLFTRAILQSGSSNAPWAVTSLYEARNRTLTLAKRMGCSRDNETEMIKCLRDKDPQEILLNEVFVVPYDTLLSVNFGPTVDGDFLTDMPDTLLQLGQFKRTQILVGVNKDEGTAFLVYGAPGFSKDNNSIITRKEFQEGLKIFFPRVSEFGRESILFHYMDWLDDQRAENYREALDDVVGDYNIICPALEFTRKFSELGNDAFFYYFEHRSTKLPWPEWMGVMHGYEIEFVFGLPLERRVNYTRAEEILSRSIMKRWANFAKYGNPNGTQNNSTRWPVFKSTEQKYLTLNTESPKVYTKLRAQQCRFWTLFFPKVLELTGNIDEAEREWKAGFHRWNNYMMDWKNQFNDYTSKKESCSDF
Answer each item with its documented pIC50.
Remember, pIC50 is on a log scale: it is -log10 of the molar concentration.

Exercise: I am curious: what pIC50 value has been reported for [H]/N=C(\N)NN=Cc1cc(I)c(O)c(I)c1 [Compound 2b] ?
Key: 4.33

Exercise: Given the entry NC(=O)N/N=C/c1cc(I)cc(I)c1O [Compound 2h] , report its measured pIC50.
Key: 4.46

Exercise: Reported pIC50 for [H]/N=C(\N)NN=Cc1ccco1 [Compound 3a] : what is it?
Key: 4.08

Exercise: Name the reported pIC50 value associated with the compound N=C(N)NNCc1cc(I)cc(I)c1O [Compound 2d]
Key: 4.38

---

biological target: UniProtKB O42275; assay: biochemical; type: biochemical
Answer each item with its documented IC50.
// units = µM; emit number, no label

Exercise: Entry N=C(NN)NN [1,3-diaminoguanidine, reference compound] : reported IC50 = ?
Key: 41.7

Exercise: Returns the measured IC50 for the input compound. Input: `Cl.N=C(NN)N/N=C/c1cc(I)cc(I)c1O`
Key: 28.2

Exercise: Item under review: `[H]/N=C(\N)NN=Cc1ccccc1` . Reported IC50?
Key: 36.2

Exercise: // IC50 lookup, key: `N=C(N/N=C/c1cc(I)cc(I)c1O)N/N=C/c1cc(I)cc(I)c1O`
Key: 54.9

Exercise: # lookup: IC50 of `[H]/N=C(\N)NN=Cc1ccc(Cl)cc1`
Key: 45.2

Exercise: GET /values?readout=IC50&item= `N=C(N/N=C/c1ccc([N+](=O)[O-])o1)N/N=C/c1ccc([N+](=O)[O-])o1`
Key: 40

Exercise: Which IC50 reading was recorded for the compound `[H]/N=C(\N)NN=Cc1cccc(Cl)c1` ?
Key: 43.9

Exercise: Sample `[H]/N=C(\N)NN=Cc1ccc([N+](=O)[O-])o1` — what was its IC50?
Key: 24.2

---

system: HepG2 cells; details: read-out: IC50 cytotoxicity towards HepG2 cell line; CellTiter 96, 24 h incubation
RECORDED_METRIC: IC50 (µM)
Express the result in µM but write the number alone.

Exercise: // query IC50 value for entry `NC(=S)N/N=C/c1ccc([N+](=O)[O-])o1`
Key: 29.8

Exercise: Param item = `[H]/N=C(\N)NN=Cc1cc(I)cc(I)c1` ; retrieve measured IC50.
Key: 9.84

Exercise: So what's the measured IC50 for this one? `[H]/N=C(\N)NN=Cc1cc(I)cc(I)c1O`
Key: 56.5

Exercise: What does the record list as IC50 for `CC(=O)Oc1c(I)cc(I)cc1/C=N/NC(=N)N` ?
Key: 31.3

---

biological target: AChE from electric eel (EeAChE) (Electrophorus electricus); test: biochemical; assay type: biochemical
Sequence (O42275 24-633): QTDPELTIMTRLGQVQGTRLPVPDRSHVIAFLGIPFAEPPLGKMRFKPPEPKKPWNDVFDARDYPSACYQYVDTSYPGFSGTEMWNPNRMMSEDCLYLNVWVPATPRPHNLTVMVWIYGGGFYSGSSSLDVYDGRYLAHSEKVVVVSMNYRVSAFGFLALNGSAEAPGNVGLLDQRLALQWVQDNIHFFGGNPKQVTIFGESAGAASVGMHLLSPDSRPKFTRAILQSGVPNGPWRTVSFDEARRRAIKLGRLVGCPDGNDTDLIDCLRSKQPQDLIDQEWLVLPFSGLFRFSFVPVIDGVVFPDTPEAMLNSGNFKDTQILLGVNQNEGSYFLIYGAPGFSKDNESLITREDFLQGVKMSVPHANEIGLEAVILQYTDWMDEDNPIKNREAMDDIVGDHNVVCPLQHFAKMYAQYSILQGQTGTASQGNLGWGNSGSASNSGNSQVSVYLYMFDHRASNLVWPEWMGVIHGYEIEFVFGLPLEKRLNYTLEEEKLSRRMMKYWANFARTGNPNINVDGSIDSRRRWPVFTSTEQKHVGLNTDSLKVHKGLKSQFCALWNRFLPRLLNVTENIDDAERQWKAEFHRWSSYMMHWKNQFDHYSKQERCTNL
Assign Y whenever Selectivity AChE/BuChE does not fall below 0.9; assign N whenever it does.

Exercise: Please check the record [H]/N=C(\N)NN=Cc1cccc(Cl)c1 [Compound 1c] and state if its Selectivity AChE/BuChE is at or above 0.9.
Key: Y

Exercise: Test whether the compound [H]/N=C(\N)NN=Cc1cc(I)c(O)c(I)c1 [Compound 2b] records Selectivity AChE/BuChE of 0.9 or higher.
Key: N

Exercise: For this compound, is measured Selectivity AChE/BuChE 0.9 or higher? NC(=S)N/N=C/c1cc(I)cc(I)c1O [Compound 2i]
Key: N

Exercise: Please indicate if the recorded Selectivity AChE/BuChE for [H]/N=C(\N)NN=Cc1cc(Cl)cc(Cl)c1O [Compound 1j] meets or exceeds 0.9.
Key: N

Exercise: Textbook exercise: given the entry N=C(N)NNCc1cc(I)cc(I)c1O [Compound 2d] , state whether its Selectivity AChE/BuChE is greater than or equal to 0.9.
Key: Y

Exercise: Check this compound for Selectivity AChE/BuChE at or above 0.9: [H]/N=C(\N)NN=Cc1cc(I)ccc1O [Compound 1i]
Key: Y

Exercise: hey, is Selectivity AChE/BuChE for this one >= 0.9? [H]/N=C(\N)NN=Cc1ccc([N+](=O)[O-])o1 [Compound 1n]
Key: N

Exercise: Hi team, for [H]/N=C(\N)NN=Cc1ccc([N+](=O)[O-])s1 [Compound 1o] , is the recorded Selectivity AChE/BuChE at or above 0.9?
Key: N

Exercise: Entry [H]/N=C(\N)NN=Cc1cc(I)cc(I)c1 [Compound 2c] : is its Selectivity AChE/BuChE no less than 0.9?
Key: N

Exercise: Quick check: does [H]/N=C(\N)NN=Cc1ccccc1 [Compound 1a] have Selectivity AChE/BuChE greater than or equal to 0.9?
Key: N

Exercise: I'd appreciate it if you could say whether NC(N)=NN=C1C(=O)Nc2ccccc21 [Compound 1p] has Selectivity AChE/BuChE at least equal to 0.9.
Key: Y
